pIC50 values, listed per item
# System: HUVEC
# PROTOCOL: Antiproliferative activity against HUVEC after 72 hrs by MTT assay
# Format: cell-based
# TEST CONDITIONS: Homo sapiens
Note on units: pIC50 is unitless, being -log10 of a concentration expressed in mol/L.

These solved cases illustrate the format of a correct answer.
MOLECULE	ENDPOINT NAME	VAL
CC(=O)Cc1cc(=O)c2c(O)c3c(O)cc(O)c(-c4c(O)cc(O)c5c(O)c6c(=O)cc(CC(C)=O)oc6cc45)c3cc2o1	pIC50	4.76
CC(=O)Cc1cc(=O)c2c(O)c3c(O)cc(O)c(-c4c(O)cc(O)c5c(O)c6c(=O)cc(C)oc6cc45)c3cc2o1 [HYPOCHROMIN B]	pIC50	4.88

Now look at this entry.
Record CC(=O)Cc1cc(=O)c2c(O)c3c(O)cc(O)c(-c4c(O)cc(O)c5c(O)c6c(=O)cc(CC(C)O)oc6cc45)c3cc2o1 (stereo not drawn) [HYPOCHROMIN A] . Reported pIC50: 4.30

---

# Organism: Mus musculus
# PROTOCOL: Toxicity in mouse assessed as reduction of body weight
# Format: organism-based
# TEST CONDITIONS: in vivo
ENDPOINT NAME: Activity

COMPOUND	VAL
Cc1oc2cc3c(-c4c(O)cc(O)c5c(O)c6c(cc45)O[C@@H](C)[C@H](C)C6=O)c(O)cc(O)c3c(O)c2c(=O)c1C [CHAETOCHROMIN D]	Toxic
CC1CC(=O)c2c(cc3c(-c4c(O)cc(O)c5c(O)c6c(cc45)O[C@H](C)[C@@H](C)C6=O)c(O)cc(O)c3c2O)O1 (some centres undefined) [CHAETOCHROMIN C]	Toxic
Cc1cc(=O)c2c(O)c3c(O)cc(O)c(-c4c(O)cc(O)c5c(O)c6c(cc45)OC(C)CC6=O)c3cc2o1 (centres undefined) [USTILAGINOIDIN G]	Toxic
C[C@@H]1Oc2cc3c(-c4c(O)cc(O)c5c(O)c6c(cc45)O[C@H](C)[C@@H](C)C6=O)c(O)cc(O)c3c(O)c2C(=O)[C@@H]1C [CHAETOCHROMIN B]	Toxic
